# system.tested: Isocitrate dehydrogenase [NADP] cytoplasmic (Homo sapiens, UniProt O75874, R132H)
# Sequence (O75874 2-414 R132H limits assumed): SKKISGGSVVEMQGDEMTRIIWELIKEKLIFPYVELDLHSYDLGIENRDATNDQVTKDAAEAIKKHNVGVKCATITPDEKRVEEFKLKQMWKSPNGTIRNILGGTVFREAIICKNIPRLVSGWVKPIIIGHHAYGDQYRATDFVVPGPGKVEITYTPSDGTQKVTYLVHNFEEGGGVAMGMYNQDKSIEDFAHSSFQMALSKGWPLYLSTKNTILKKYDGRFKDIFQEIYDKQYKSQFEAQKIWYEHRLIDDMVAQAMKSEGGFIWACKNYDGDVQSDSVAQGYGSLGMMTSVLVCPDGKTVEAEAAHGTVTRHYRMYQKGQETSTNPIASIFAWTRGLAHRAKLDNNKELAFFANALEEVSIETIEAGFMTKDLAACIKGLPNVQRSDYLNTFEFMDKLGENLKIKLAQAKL
# experimental.protocol: Inhibition of recombinant human N-terminal GST-fused IDH1 R132H mutant expressed in Escherichia coli using alpha-ketoglutarate as substrate preincubated for 15 mins followed by substrate addition
quantity.measured: IC50 (nM)

Worked cases, IC50 given:
smiles | measurement.units | measured
Cn1nc(C2=C(c3cn(CCCO)c4ccccc34)C(=O)NC2=O)c2cccnc21 | nM | 39600
O=C1NC(=O)C(c2cn(CCCn3ccnc3)c3ccccc23)=C1c1ccccc1 | nM | 1980
Cc1ccc2c(C3=C(c4nn(C)c5ncccc45)C(=O)NC3=O)cn(CCCn3ccnc3)c2c1 | nM | 60
Cn1nc(C2=C(c3cn(CCCn4cncn4)c4ccccc34)C(=O)NC2=O)c2cccnc21 | nM | 11900
Cn1nc(C2=C(c3cn(CCCn4ccnc4)c4cccc(Br)c34)C(=O)NC2=O)c2cccnc21 | nM | 930
O=C1NC(=O)C(n2ccc3ccncc32)=C1c1cn(CCCn2ccnc2)c2ccccc12 | nM | 1450
COc1ccc2c(c1)c(C1=C(c3nn(C)c4ncccc34)C(=O)NC1=O)cn2CCCn1ccnc1 | nM | 13600
CCCCn1nc(C2=C(c3cn(CCCn4ccnc4)c4ccccc34)C(=O)NC2=O)c2cccnc21 | nM | 950

I: COc1ccc2c(C3=C(c4nn(C)c5ncccc45)C(=O)NC3=O)cn(CCCn3ccnc3)c2c1
II: O=C1NC(=O)C(c2cn(CCCn3ccnc3)c3ccccc23)=C1c1cccc2ccccc12
III: Cn1nc(C2=C(c3cn(CCCn4ccnc4)c4cc(Br)ccc34)C(=O)NC2=O)c2cccnc21
IV: CN1C(=O)C(c2cn(CCCn3ccnc3)c3ccccc23)=C(c2nn(C)c3ncccc23)C1=O
V: Cn1nc(C2=C(c3cn(CCCn4ccnc4)c4ccc(Br)cc34)C(=O)NC2=O)c2cccnc21
Sort the compounds on IC50; start with the lowest figure. Provide the ranking by listing each label in its place in the requested order.
III, I, IV, II, V
(III: 60 nM, I: 190 nM, IV: 930 nM, II: 3050 nM, V: 5000 nM)

###

# system.tested: Isocitrate dehydrogenase [NADP] cytoplasmic (Homo sapiens, UniProt O75874, R132H)
# experimental.protocol: Inhibition of recombinant human N-terminal GST-fused IDH1 R132H mutant expressed in Escherichia coli using alpha-ketoglutarate as substrate preincubated for 15 mins followed by substrate addition
pIC50: −log10 of the molar value.
quantity.measured: pIC50

smiles | pIC50
Cn1nc(C2=C(c3cn(CCCn4ccnc4)c4ccccc34)C(=O)NC2=O)c2ccccc21 | 5.81

a: Cn1nc(C2=C(c3cn(CCCn4ccnc4)c4cc(Cl)ccc34)C(=O)NC2=O)c2cccnc21
b: O=C1NC(=O)C(c2cn(CCCn3ccnc3)c3ccccc23)=C1c1coc2ncccc12
Higher pIC50 between a and b ? # answer = label of selected item
a
(a: 6.85, b: 5.65)
